Numbers sourced from patent US20240174637A1.

System: PAXF1657 KO Clone #4
test method notes: 7-day cellular proliferation assay (CellTiter-Glo), PAXF1657 KO Clone #4
Type: cell-based
condition parameters: proliferation, read-out: GeoMean IC50 (uM) PAXF1657 KO Clone #4
Structures can show the parent of a compound that is named as a salt.
Reported IC50 values are given for each entry in this list.

compound: C[C@@H](NC(=O)c1cccc(NCc2nnc(-c3ccncn3)n2C)c1)c1cccc(OCCCCCOCCCOCCNc2cccc3c2CN(C2CCC(=O)NC2=O)C3=O)c1 (some centres unmarked) [Compound D196]
IC50: > 30 µM

compound: Cn1c(CNc2cccc(C(=O)NCc3cccc(OCCCCCOCCCOCC(=O)N4CCN(c5ccc6c(c5)CN(C5CCC(=O)NC5=O)C6=O)CC4)c3)c2)nnc1-c1ccncn1 (centres unmarked) [Compound D189]
IC50: > 30 µM

compound: C[C@@H](NC(=O)c1cccc(NCc2nnc(-c3ccncn3)n2C)c1)c1cccc(OCCCCCCOCCOCCNc2ccc3c(c2)CN(C2CCC(=O)NC2=O)C3=O)c1 (some centres unmarked) [Compound D141]
IC50: 1.66 µM

compound: C[C@H](NC(=O)c1cccc(NCc2nnc(-c3ccncn3)n2C)c1)c1ccc(OCCCCCOCCCOCC(=O)Nc2cccc3c2CN(C2CCC(=O)NC2=O)C3=O)cc1 (some centres unmarked) [Compound D150]
IC50: > 30 µM

compound: Cn1c(CNc2cccc(C(=O)N[C@@H]3CCOc4ccc(OCCCCCCOCCOCCOCCCCCC(=O)Nc5cccc6c5CN(C5CCC(=O)NC5=O)C6=O)cc43)c2)nnc1-c1ccncn1 (some centres unmarked) [Compound D187]
IC50: > 30 µM

compound: C[C@@H](NC(=O)c1cccc(NCc2nnc(-c3ccncn3)n2C)c1)c1cccc(OCCCCCn2cc(CCCCC(=O)Nc3cccc4c3CN(C3CCC(=O)NC3=O)C4=O)nn2)c1 (some centres unmarked) [Compound D164]
IC50: > 30 µM

compound: C[C@@H](NC(=O)c1cccc(NCc2nnc(-c3ccncn3)n2C)c1)c1cccc(C(=O)N2CC(N3CCN(c4ccc5c(c4)CN(C4CCC(=O)NC4=O)C5=O)CC3)C2)c1 (some centres unmarked) [Compound D172]
IC50: > 30 µM

compound: C[C@@H](NC(=O)c1cccc(NCc2nnc(-c3ccncn3)n2C)c1)c1ccc(OCCCCCCOCCOCCOCCCC(=O)N2CCN(c3cc4c(cc3F)C(=O)N(C3CCC(=O)NC3=O)C4=O)CC2)cc1 (some centres unmarked) [Compound D125]
IC50: 26.6 µM

compound: C[C@@H](NC(=O)c1cccc(NCc2nnc(-c3ccncn3)n2C)c1)c1ccc(OCCCCCCOCCOCCOCCCCCC(=O)Nc2cccc3c2CN(C2CCC(=O)NC2=O)C3=O)cc1 (some centres unmarked) [Compound D147]
IC50: > 30 µM

compound: C[C@@H](NC(=O)c1cccc(NCc2nnc(-c3ccncn3)n2C)c1)c1cccc(OCCCCCCOCCOCC(=O)N2CCN(c3ccc4c(c3)CN(C3CCC(=O)NC3=O)C4=O)CC2)c1 (some centres unmarked) [Compound D138, hydrochloride]
IC50: > 30 µM

compound: C[C@@H](NC(=O)c1cccc(NCc2nnc(-c3ccncn3)n2C)c1)c1ccc(OCCCN2CCN(c3ccc4c(c3)CN(C3CCC(=O)NC3=O)C4=O)CC2)cc1 (some centres unmarked) [Compound D173]
IC50: 0.26 µM

compound: C[C@@H](NC(=O)c1cccc(NCc2nnc(-c3ccncn3)n2C)c1)c1cccc(OCCCCCCOCCOCCOCCCCCC(=O)Nc2cccc3c2CN(C2CCC(=O)N(C)C2=O)C3=O)c1 (some centres unmarked) [Compound D190]
IC50: 26.8 µM

compound: Cc1ncsc1-c1ccc(CNC(=O)[C@@H]2C[C@@H](O)CN2C(=O)[C@@H](NC(=O)CCCOCCOCCOCCCCCCOc2ccc([C@@H](C)NC(=O)c3cccc(NCc4nnc(-c5ccncn5)n4C)c3)cc2)C(C)(C)C)cc1 [Compound D116]
IC50: 7.48 µM

compound: Cn1c(CNc2cccc(C(=O)N[C@H]3CCOc4ccc(OCCCCCOCCCOCC(=O)Nc5cccc6c5CN(C5CCC(=O)NC5=O)C6=O)cc43)c2)nnc1-c1ccncn1 (some centres unmarked) [Compound D155]
IC50: > 30 µM

compound: C[C@@H](NC(=O)c1cccc(NCc2nnc(-c3ccncn3)n2C)c1)c1ccc(OCCCCN2CCN(c3ccc4c(c3)CN(C3CCC(=O)NC3=O)C4=O)CC2)cc1 (some centres unmarked) [Compound D175, hydrochloride]
IC50: > 30 µM

compound: C[C@@H](NC(=O)c1cccc(NCc2nnc(-c3ccncn3)n2C)c1)c1cccc(OCCCCCOCCCOCCNc2ccc3c(c2)CN(C2CCC(=O)NC2=O)C3=O)c1 (some centres unmarked) [Compound D171]
IC50: > 30 µM

compound: C[C@@H](NC(=O)c1cccc(NCc2nnc(-c3ccncn3)n2C)c1)c1cccc(C(=O)N2CCC(CCCN3CCN(c4ccc5c(c4)CN(C4CCC(=O)NC4=O)C5=O)CC3)CC2)c1 (some centres unmarked) [Compound D119, hydrochloride]
IC50: 2.73 µM

compound: Cc1ncsc1-c1ccc(CNC(=O)[C@@H]2C[C@@H](O)CN2C(=O)[C@@H](NC(=O)CCCCOCCOCCOCCCCCCOc2cccc(CNC(=O)c3cccc(NCc4nnc(-c5ccncn5)n4C)c3)c2)C(C)(C)C)cc1 [Compound D109]
IC50: 5.17 µM

compound: C[C@H](NC(=O)c1cccc(NCc2nnc(-c3ccncn3)n2C)c1)c1ccc(OCCCCCCOCCOCCOCCCCCC(=O)Nc2cccc3c2CN(C2CCC(=O)NC2=O)C3=O)cc1 (some centres unmarked) [Compound D152]
IC50: > 30 µM

compound: C[C@@H](NC(=O)c1cccc(NCc2nnc(-c3ccncn3)n2C)c1)c1cccc(C(=O)N2CCC(CCN3CCN(c4ccc5c(c4)CN(C4CCC(=O)NC4=O)C5=O)CC3)CC2)c1 (some centres unmarked) [Compound D120]
IC50: > 30 µM
